# System: lambsquarters
# Assay Explanation: Test C pre-/postemergence test
# Type: in vivo, Chenopodium album
# Measurement Setup: 62 g ai/ha, Preemergence; scale 0 to 100
Outcome Measure: Lambsquarters plant response rating
Respond using a number only.

Worked examples follow.
C#CCOc1c(CS(=O)(=O)c2cccc[n+]2[O-])c(C(F)(F)F)nn1C
50
CC(c1c(C(F)(F)F)nn(CC(F)(F)F)c1Cl)[S+]([O-])c1cccc[n+]1[O-] (centres unmarked)
90
Cn1nc(C(F)(F)C(F)(F)F)c(C[S+]([O-])c2cccc[n+]2[O-])c1OCC(F)(F)F (centres unmarked)
90
Cn1nc(C(F)(F)F)c(C(Cl)S(=O)(=O)c2cccc[n+]2[O-])c1OC(F)F (centres unmarked)
100

# molecule CCc1cc[n+]([O-])c(S(=O)(=O)Cc2c(C(F)(F)F)nn(C)c2OCC(F)(F)F)c1 ; its Lambsquarters plant response rating = 100

###

# System: Italian ryegrass
# Assay Explanation: Test C pre-/postemergence test
# Type: in vivo, Lolium multiflorum
# Measurement Setup: 62 g ai/ha, preemergence; scale 0 (no effect) to 100 (complete control)
Outcome Measure: Ryegrass, Italian plant response rating
Respond using a number only.

Cn1nc(C(F)(F)F)c(CS(=O)(=O)c2ccc(Cl)c[n+]2[O-])c1OC(F)F
40
Cn1nc(C(F)(F)F)c(C[S+]([O-])c2cccc[n+]2[O-])c1OC(F)F (stereo not drawn)
100

Pending compound:
# compound CC(c1c(C(F)(F)F)nn(C)c1Cl)S(=O)(=O)c1cccc[n+]1[O-] (stereo not drawn) ; its Ryegrass, Italian plant response rating = 40

###

This listing pairs compounds with measured Plant response rating, Barnyardgrass.
# System: barnyardgrass
# Assay Explanation: Test F preemergence test
# Assay type: in vivo, Echinochloa crus-galli
# Measurement Setup: Preemergence; 31 g ai/ha; scale 0 to 100
Respond using a number only.

Cn1nc(C(F)(F)F)c(C[S+]([O-])c2ccc(Cl)c[n+]2[O-])c1OCC(F)F (stereo not drawn)
80

# compound Cc1cc[n+]([O-])c([S+]([O-])Cc2c(C(F)(F)F)nn(C)c2OC(F)F)c1 (stereo not drawn) ; its Plant response rating, Barnyardgrass = 80

# compound Cc1cc[n+]([O-])c([S+]([O-])Cc2c(C(F)(F)F)nn(C)c2Cl)c1 (racemic) ; its Plant response rating, Barnyardgrass = 80

###

# Tested on: corn
# Assay Explanation: Test C pre-/postemergence test
# Assay type: in vivo, Zea mays
# Measurement Setup: 62 g ai/ha, Preemergence; scale 0 to 100
# Description: Seeds of plant species selected from blackgrass (Alopecurus myosuroides), downy brome (Bromus tectorum), green foxtail (Setaria viridis), Italian ryegrass (Lolium multiflorum), wheat (Triticum aestivum), wild oat (Avena fatua), catchweed bedstraw (Galium aparine), Russian thistle (Salsola kali), […] […]
Outcome Measure: Corn plant response rating

# compound Cn1nc(C(F)(F)F)c(C[S+]([O-])c2cccc[n+]2[O-])c1OCC(F)(F)F (racemic) ; its Corn plant response rating = 85

# compound CCn1nc(C(F)(F)F)c(C[S+]([O-])c2cccc[n+]2[O-])c1OCC(F)(F)F (racemic) ; its Corn plant response rating = 100

# compound Cn1nc(C(F)(F)F)c(CS(=O)(=O)c2cccc[n+]2[O-])c1OCC(F)(F)F ; its Corn plant response rating = 80

# compound CCc1cc[n+]([O-])c([S+]([O-])Cc2c(C(F)(F)F)nn(C)c2OC(F)F)c1 (stereo not shown) ; its Corn plant response rating = 75

# compound Cn1nc(C(F)(F)F)c(CS(=O)(=O)c2cc(C(C)(C)C)cc[n+]2[O-])c1OC(F)F ; its Corn plant response rating = 20

# compound Cc1cc[n+]([O-])c(S(=O)(=O)Cc2c(C(F)(F)F)nn(C)c2OCC(F)F)c1 ; its Corn plant response rating = 10

###

This listing pairs compounds with measured Plant response rating, Ryegrass, Italian.
# System: Italian ryegrass
# Assay Explanation: Test C pre-/postemergence test
# Format: in vivo, Lolium multiflorum
# Measurement Setup: Preemergence, 31 g ai/ha; scale 0 to 100 (0 no effect, 100 complete control)

Worked examples follow.
Cc1cc[n+]([O-])c(S(=O)(=O)Cc2c(C(F)(F)F)nn(C)c2Cl)c1 [Compound 19]
0
CC(C)c1cc[n+]([O-])c([S+]([O-])Cc2c(C(F)(F)F)nn(C)c2OC(F)F)c1 (centres unmarked) [Compound 109]
0
Cc1cc[n+]([O-])c(S(=O)(=O)Cc2c(C(F)(F)C(F)(F)F)nn(C)c2OCC(F)(F)F)c1 [Compound 99]
70
Cc1cc[n+]([O-])c(S(=O)(=O)Cc2c(C(F)(F)F)nn(C)c2OC(C)C(F)(F)F)c1 (centres unmarked) [Compound 96]
60
CC(c1c(C(F)(F)F)nn(CC(F)(F)F)c1Cl)[S+]([O-])c1cccc[n+]1[O-] (centres unmarked) [Compound 46]
0
Cn1nc(C(F)(F)F)c(C(Cl)S(=O)(=O)c2cccc[n+]2[O-])c1OC(F)F (centres unmarked) [Compound 51]
0
Cn1nc(OC(F)F)c(CS(=O)(=O)c2cccc[n+]2[O-])c1C(F)(F)F [Compound 80]
0
CC(Oc1c(C[S+]([O-])c2ccc(Cl)c[n+]2[O-])c(C(F)(F)F)nn1C)C(F)(F)F (centres unmarked) [Compound 87]
95

# compound Cn1nc(C(F)(F)F)c(C[S+]([O-])c2ccc(Cl)c[n+]2[O-])c1Cl (racemic) [Compound 17] ; its Plant response rating, Ryegrass, Italian = 30

# compound Cc1cc[n+]([O-])c(S(=O)(=O)Cc2c(C(F)(F)F)nn(C)c2OCC(F)(F)F)c1 [Compound 31] ; its Plant response rating, Ryegrass, Italian = 40

# compound CCc1cc[n+]([O-])c([S+]([O-])Cc2c(C(F)(F)F)nn(C)c2OC(F)F)c1 (centres unmarked) [Compound 101] ; its Plant response rating, Ryegrass, Italian = 0

###

# Tested on: lambsquarters
# Assay Explanation: Test C pre-/postemergence test
# Format: in vivo, Chenopodium album
# Measurement Setup: Preemergence, 31 g ai/ha; scale 0 to 100 (0 no effect, 100 complete control)
This listing pairs compounds with measured Plant response rating, Lambsquarters.

Worked examples follow.
Cc1cc[n+]([O-])c([S+]([O-])Cc2c(C(F)(F)F)nn(C)c2Cl)c1 (racemic) [Compound 20]
90
Cc1cc[n+]([O-])c(S(=O)(=O)Cc2c(C(F)(F)F)nn(C)c2OC(C)C(F)(F)F)c1 (centres unmarked) [Compound 96]
50
Cn1nc(C(F)(F)F)c(C[S+]([O-])c2cc(C(C)(C)C)cc[n+]2[O-])c1OC(F)F (racemic) [Compound 24]
85
CC(c1c(C(F)(F)F)nn(C)c1OC(F)F)S(=O)(=O)c1cc(C(C)(C)C)cc[n+]1[O-] (racemic) [Compound 26]
0
CC(Oc1c(C[S+]([O-])c2ccc(Cl)c[n+]2[O-])c(C(F)(F)F)nn1C)C(F)(F)F (centres unmarked) [Compound 87]
60

# compound Cc1cc[n+]([O-])c(S(=O)(=O)C(Cl)c2c(C(F)(F)F)nn(C)c2OCC(F)(F)F)c1 (racemic) [Compound 37] ; its Plant response rating, Lambsquarters = 0

# compound Cn1nc(C(F)(F)F)c(C(Cl)S(=O)(=O)c2cccc[n+]2[O-])c1OCC(F)(F)F (racemic) [Compound 36] ; its Plant response rating, Lambsquarters = 0

# compound Cn1nc(C(F)(F)F)c(C[S+]([O-])c2ccc(F)c[n+]2[O-])c1Cl (centres unmarked) [Compound 54] ; its Plant response rating, Lambsquarters = 0

###

# Tested on: wheat
# Assay Explanation: Test A pre-/postemergence greenhouse test
# Type: in vivo, Triticum aestivum
# Measurement Setup: Preemergence, 125 g ai/ha; 0 to 100 scale, 0 no effect, 100 complete control
This listing pairs compounds with measured Wheat plant response rating.
Respond using a number only.

Worked examples follow.
Cn1nc(C(F)(F)F)c(CS(=O)(=O)c2ccc(F)c[n+]2[O-])c1OC(F)F
0
CC(c1c(C(F)(F)F)nn(CC(F)(F)F)c1Cl)[S+]([O-])c1cccc[n+]1[O-] (stereo not shown)
0

# compound Cn1nc(C(F)(F)F)c(C[S+]([O-])c2ccc(Br)c[n+]2[O-])c1OC(F)F (racemic) ; its Wheat plant response rating = 60

# compound Cn1nc(C(F)(F)F)c(CS(=O)(=O)c2cc(Br)cc[n+]2[O-])c1Cl ; its Wheat plant response rating = 0

# compound Cn1nc(C(F)(F)F)c(C[S+]([O-])c2ccc(F)c[n+]2[O-])c1OC(F)F (stereo not shown) ; its Wheat plant response rating = 60

# compound CCOc1ccc(S(=O)(=O)Cc2c(C(F)(F)F)nn(C)c2OC(F)F)[n+]([O-])c1 ; its Wheat plant response rating = 0

# compound Cn1nc(C(F)(F)F)c(C(Cl)S(=O)(=O)c2ccc(Cl)c[n+]2[O-])c1Cl (racemic) ; its Wheat plant response rating = 0

# compound O=S(=O)(Cc1c(C(F)(F)F)nn(CC(F)(F)F)c1Cl)c1cccc[n+]1[O-] ; its Wheat plant response rating = 0

# compound Cc1cc[n+]([O-])c(S(=O)(=O)Cc2c(C(F)(F)F)nn(C)c2OCC(F)F)c1 ; its Wheat plant response rating = 40

# compound Cn1nc(C(F)(F)F)c(C[S+]([O-])c2ccc(Cl)c[n+]2[O-])c1OCC(F)F (stereo not shown) ; its Wheat plant response rating = 70
